Molecular target: dopamine-β-hydroxylase (DBH) (Bos taurus)
Test: in vitro DBH inhibition (conversion of tyramine to octopamine, absorbance at 330 nm)
Assay type: biochemical
Conditions: in vitro, tyramine to octopamine; read-out: IC50 (molar concentration of compound at which DBH activity was halved)
pIC50: −log10 of the molar value.
parameter measured: pIC50

(a) Nc1c(Cl)cc(Cn2ccnc2S)cc1Cl
(b) Nc1c(F)cc(Cn2ccnc2S)cc1F
Exercise: Lower value for measured pIC50? Options: a , b Reply briefly: the label of your chosen item.
Key: a

----------
Target: dopamine-β-hydroxylase (DBH) (Bos taurus, UniProt P15101)
Sequence (P15101 whole entry): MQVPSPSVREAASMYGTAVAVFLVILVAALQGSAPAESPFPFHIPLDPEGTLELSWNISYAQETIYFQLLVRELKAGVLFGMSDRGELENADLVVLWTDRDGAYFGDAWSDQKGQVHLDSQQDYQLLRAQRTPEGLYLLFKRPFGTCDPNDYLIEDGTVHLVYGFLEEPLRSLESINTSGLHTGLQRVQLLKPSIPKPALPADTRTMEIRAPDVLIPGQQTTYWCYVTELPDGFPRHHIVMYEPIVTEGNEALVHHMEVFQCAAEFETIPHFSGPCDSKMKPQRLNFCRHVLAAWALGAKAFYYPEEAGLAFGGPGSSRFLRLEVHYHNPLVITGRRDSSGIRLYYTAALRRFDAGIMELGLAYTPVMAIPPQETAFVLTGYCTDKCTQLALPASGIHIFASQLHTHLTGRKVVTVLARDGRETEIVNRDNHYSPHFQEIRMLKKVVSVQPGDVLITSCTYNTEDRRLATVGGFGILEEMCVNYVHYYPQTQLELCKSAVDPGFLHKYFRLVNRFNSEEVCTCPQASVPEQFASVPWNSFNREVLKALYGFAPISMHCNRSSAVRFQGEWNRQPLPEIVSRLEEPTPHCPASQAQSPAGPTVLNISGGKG
Assay: in vitro DBH inhibition (conversion of tyramine to octopamine, absorbance at 330 nm)
Type: biochemical
Conditions: comparison compound of U.S. patent application Ser. No. 590,665; read-out: IC50 of comparison DBH inhibitor
Protocol: Because the compounds of Formula I inhibit DBH activity, they have therapeutic value as diuretic, natriuretic, cardiotonic, antihypertensive and vasodilator agents, as well as antiulcerogenic and anti-Parkinsonian agents. […] Octopamine was assayed following sodium periodate oxidation to p-hydroxybenzaldehyde by measuring spectrophotometric absorbance at 330 nm. […]
parameter measured: IC50 (nM)
Write the value in nM as a bare number.

Exercise: What does the record list as IC50 for "Oc1c(F)cc(Cn2cc[nH]c2=S)cc1F" ?
Key: 80
